systemTested: TB14 (UniProt C9ZDC6+P14779)
Construct: 14-aa linker […]; BM3R, reductase domain of P450BM3 (CYP102A1), fusion partner after the linker; inferred from Ni-NTA purification and the pET28b vector
protocolDescription: Binding affinities of Trp analogues toward TB14 (spectral shift titration)
particulars: read-out: TB14 Kd; 1.5 μM enzyme, 25 mM Tris-HCl, pH 8.0
pKd: −log10 of the molar value.
# if value of pKd reaches 4, tag 1; if it stays below, tag 0

- compound: "NCCc1c[nH]c2ccccc12"
  classification: 1
- compound: "NC(Cc1c[nH]c2cccc(F)c12)C(=O)O (racemic)"
  classification: 0
- compound: "O=C(O)C(=O)Cc1c[nH]c2ccccc12"
  classification: 0
- compound: "NCCc1c[nH]c2ccc(O)cc12"
  classification: 0
- compound: "N[C@@H](Cc1c[nH]c2cc(F)ccc12)C(=O)O (racemic)"
  classification: 1

* * *

systemTested: TxtE (Streptomyces scabiei)
Type: biochemical, S. scabies
Parameters: inferred from Ni-NTA purification and the pET28b vector; made in house
particulars: 0.5 mM substrate, 45 min, FIG. 8
valueType: Nitration activity of TxtE toward the substrate (in words)

- molecule: "Cc1cccc2[nH]cc(CC(N)C(=O)O)c12 (racemic)"
  result: "good activity"
- molecule: "Cc1ccc2[nH]cc(CC(N)C(=O)O)c2c1 (racemic)"
  result: "good activity"
- molecule: "N[C@@H](Cc1c[nH]c2cc(F)ccc12)C(=O)O (racemic)"
  result: "good activity"

* * *

systemTested: TB14 (UniProt C9ZDC6+P14779)
Construct: 14-aa linker […]; BM3R, reductase domain of P450BM3 (CYP102A1), fusion partner after the linker; inferred from Ni-NTA purification and the pET28b vector; made in house; host or cells: E. coli BL21 (DE3)-GOLD, pET28b-TxtE-BM3R
protocolDescription: Nitration of Trp and its analogues by TB14 (45 min, HPLC)
Type: biochemical
particulars: 0.5 mM substrate, 45 min, FIG. 8
valueType: Nitration activity of TB14 toward the substrate (in words)

- compound: "Cc1cccc2[nH]cc(CC(N)C(=O)O)c12 (racemic)"
  result: "good activity"
- compound: "Cc1ccc2[nH]cc(CC(N)C(=O)O)c2c1 (racemic)"
  result: "good activity"
- compound: "N[C@@H](Cc1c[nH]c2cc(F)ccc12)C(=O)O (racemic)"
  result: "good activity"

* * *

systemTested: TxtE (Streptomyces scabiei, UniProt C9ZDC6)
protocolDescription: biochemical
Assay type: binding, S. scabies
Design: inferred from Ni-NTA purification and the pET28b vector; made in house; host or cells: E. coli BL21 (DE3)-GOLD, pET28b
particulars: read-out: TxtE Kd; 1.5 μM enzyme, 25 mM Tris-HCl, pH 8.0
Experimental: The ferric heme of enzymes was then saturated with carbon monoxide (Airgas) through bubbling and the spectra of the saturated enzyme solutions were recorded. […] Data were further analyzed by Excel. […] Not more than 10 μl of substrate stock solutions prepared in the above buffer were added to the sample cuvette with an interval of 0.5 μl, and the spectra were recorded from 300 nm to 500 nm each time. […]
Attribute: Kd

- compound: "NC(Cc1c[nH]c2cccc(F)c12)C(=O)O (racemic)"
  systemTested: "TxtE (Streptomyces scabiei, UniProt C9ZDC6)"
  Kd [µM]: 189
- compound: "NCCc1c[nH]c2ccccc12"
  systemTested: "TxtE (Streptomyces scabiei, UniProt C9ZDC6)"
  Kd [µM]: 68.4
- compound: "N[C@@H](Cc1c[nH]c2cc(F)ccc12)C(=O)O (racemic)"
  systemTested: "TxtE (Streptomyces scabiei, UniProt C9ZDC6)"
  Kd [µM]: 73.4
- compound: "O=C(O)C(=O)Cc1c[nH]c2ccccc12"
  systemTested: "TxtE (Streptomyces scabiei, UniProt C9ZDC6)"
  Kd [µM]: 386
- compound: "NCCc1c[nH]c2ccc(O)cc12"
  systemTested: "TxtE (Streptomyces scabiei, UniProt C9ZDC6)"
  Kd [µM]: 322

* * *

systemTested: UniProt:C9ZDC6
protocolDescription: biochemical
Format: binding, S. scabies
Design: inferred from Ni-NTA purification and the pET28b vector; made in house; host or cells: E. coli BL21 (DE3)-GOLD, pET28b
particulars: read-out: TxtE Kd; 1.5 μM enzyme, 25 mM Tris-HCl, pH 8.0
Attribute: Kd
valueType: Kd (µM)

- givenSmiles: "N[C@@H](Cc1c[nH]c2ccc(F)cc12)C(=O)O"
  valueType: "Kd"
  scaleUnit: "µM"
  quantitativeResult: 84.2
- givenSmiles: "N[C@@H](Cc1c[nH]c2ncccc12)C(=O)O"
  valueType: "Kd"
  scaleUnit: "µM"
  quantitativeResult: 16.8
- givenSmiles: "N[C@@H](Cc1c[nH]c2ccccc12)C(=O)O"
  valueType: "Kd"
  scaleUnit: "µM"
  quantitativeResult: 24.8

* * *

Attribute: pKd
systemTested: TxtE (Streptomyces scabiei, UniProt C9ZDC6)
protocolDescription: biochemical
Assay type: binding, S. scabies
Set-up: inferred from Ni-NTA purification and the pET28b vector; made in house; host or cells: E. coli BL21 (DE3)-GOLD, pET28b
pKd: −log10 of the molar value.

- compound: "O=C(O)C(O)Cc1c[nH]c2ccccc12 (stereo not drawn)"
  systemTested: "TxtE (Streptomyces scabiei, UniProt C9ZDC6)"
  operatorSymbol: "<"
  pKd: 2.15
- compound: "Cc1cccc2c(CC(N)C(=O)O)c[nH]c12 (racemic)"
  systemTested: "TxtE (Streptomyces scabiei, UniProt C9ZDC6)"
  operatorSymbol: "="
  pKd: 4.89
- compound: "N[C@H](Cc1c[nH]c2ccccc12)C(=O)O"
  systemTested: "TxtE (Streptomyces scabiei, UniProt C9ZDC6)"
  operatorSymbol: "="
  pKd: 3.36
- compound: "Cc1cccc2[nH]cc(CC(N)C(=O)O)c12 (racemic)"
  systemTested: "TxtE (Streptomyces scabiei, UniProt C9ZDC6)"
  operatorSymbol: "="
  pKd: 5.02
- compound: "COc1ccc2[nH]cc(CC(N)C(=O)O)c2c1 (racemic)"
  systemTested: "TxtE (Streptomyces scabiei, UniProt C9ZDC6)"
  operatorSymbol: "="
  pKd: 4.54
- compound: "N[C@@H](Cc1c[nH]c2ccc(O)cc12)C(=O)O"
  systemTested: "TxtE (Streptomyces scabiei, UniProt C9ZDC6)"
  operatorSymbol: "="
  pKd: 3.47
- compound: "O=C(O)C1Cc2c([nH]c3ccccc23)CN1 (stereo not drawn)"
  systemTested: "TxtE (Streptomyces scabiei, UniProt C9ZDC6)"
  operatorSymbol: "="
  pKd: 3.24
- compound: "Cc1ccc2[nH]cc(CC(N)C(=O)O)c2c1 (racemic)"
  systemTested: "TxtE (Streptomyces scabiei, UniProt C9ZDC6)"
  operatorSymbol: "="
  pKd: 4.46
- compound: "N[C@H](CO)Cc1c[nH]c2ccccc12"
  systemTested: "TxtE (Streptomyces scabiei, UniProt C9ZDC6)"
  operatorSymbol: "="
  pKd: 3.65
- compound: "CC(N)(Cc1c[nH]c2ccccc12)C(=O)O (racemic)"
  systemTested: "TxtE (Streptomyces scabiei, UniProt C9ZDC6)"
  operatorSymbol: "="
  pKd: 4.00
- compound: "O=C(O)c1c[nH]c2ccccc12"
  systemTested: "TxtE (Streptomyces scabiei, UniProt C9ZDC6)"
  operatorSymbol: "<"
  pKd: 2.05
- compound: "O=C(O)Cc1c[nH]c2ccccc12"
  systemTested: "TxtE (Streptomyces scabiei, UniProt C9ZDC6)"
  operatorSymbol: "<"
  pKd: 1.77

* * *

systemTested: TB14 (UniProt C9ZDC6)
Construct: 14-aa linker […]; BM3R, reductase domain of P450BM3 (CYP102A1), fusion partner after the linker; inferred from Ni-NTA purification and the pET28b vector
protocolDescription: Binding affinities of Trp analogues toward TB14 (spectral shift titration)
particulars: 1.5 μM enzyme, 25 mM Tris-HCl, pH 8.0
Attribute: Kd

- compound: "N[C@@H](Cc1c[nH]c2ncccc12)C(=O)O"
  Kd, µM: 25.5
- compound: "N[C@@H](Cc1c[nH]c2ccc(O)cc12)C(=O)O"
  Kd, µM: 453
- compound: "COc1ccc2[nH]cc(CC(N)C(=O)O)c2c1 (racemic)"
  Kd, µM: 25.8
- compound: "CC(N)(Cc1c[nH]c2ccccc12)C(=O)O (racemic)"
  Kd, µM: 94.7
- compound: "Cc1cccc2c(CC(N)C(=O)O)c[nH]c12 (racemic)"
  Kd, µM: 10.6
- compound: "N[C@H](CO)Cc1c[nH]c2ccccc12"
  Kd, µM: 280
- compound: "N[C@@H](Cc1c[nH]c2ccccc12)C(=O)O"
  Kd, µM: 17.4
- compound: "Cc1cccc2[nH]cc(CC(N)C(=O)O)c12 (racemic)"
  Kd, µM: 13.5
- compound: "Cc1ccc2[nH]cc(CC(N)C(=O)O)c2c1 (racemic)"
  Kd, µM: 29.9

Numbers sourced from patent US11078467B2.
